# Target System: homomeric α1 GlyR (Homo sapiens)
# Construct: expressed in transfected cells; host or cells: CHO cells
# Sequence (P23415 29-449 isoform P23415-2 limits assumed): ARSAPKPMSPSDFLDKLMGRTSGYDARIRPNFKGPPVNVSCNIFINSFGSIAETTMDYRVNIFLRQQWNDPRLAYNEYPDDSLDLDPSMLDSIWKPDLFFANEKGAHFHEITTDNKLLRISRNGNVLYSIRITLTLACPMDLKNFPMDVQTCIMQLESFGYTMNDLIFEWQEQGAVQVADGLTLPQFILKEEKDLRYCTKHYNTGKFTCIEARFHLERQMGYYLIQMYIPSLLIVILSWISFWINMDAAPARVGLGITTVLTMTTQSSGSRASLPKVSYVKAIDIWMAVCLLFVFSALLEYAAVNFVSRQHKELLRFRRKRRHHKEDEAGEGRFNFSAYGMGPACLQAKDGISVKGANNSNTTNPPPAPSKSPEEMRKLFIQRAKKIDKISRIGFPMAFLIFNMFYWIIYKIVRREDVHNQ
# Test Protocol: Whole-cell patch-clamp of glycine-induced currents, α1 GlyR expressed in CHO cells
# Assay type: cell-based
# Condition Context: +80 mV; glycine 30 μM; ramp protocol; mean ± SEM; read-out: IC50 of NFA
Metric Name: IC50 (µM)
Give the number; µM is assumed, so skip it.

Enquiry: What IC50 value was documented for this molecule, O=C(O)c1cccnc1Nc1cccc(C(F)(F)F)c1 ?
Return: 197

---

# Target System: α2 GlyR (Homo sapiens, UniProt P23416)
# Construct: expressed in transfected cells; host or cells: CHO cells
# Sequence (P23416 28-452 isoform P23416-2 limits assumed): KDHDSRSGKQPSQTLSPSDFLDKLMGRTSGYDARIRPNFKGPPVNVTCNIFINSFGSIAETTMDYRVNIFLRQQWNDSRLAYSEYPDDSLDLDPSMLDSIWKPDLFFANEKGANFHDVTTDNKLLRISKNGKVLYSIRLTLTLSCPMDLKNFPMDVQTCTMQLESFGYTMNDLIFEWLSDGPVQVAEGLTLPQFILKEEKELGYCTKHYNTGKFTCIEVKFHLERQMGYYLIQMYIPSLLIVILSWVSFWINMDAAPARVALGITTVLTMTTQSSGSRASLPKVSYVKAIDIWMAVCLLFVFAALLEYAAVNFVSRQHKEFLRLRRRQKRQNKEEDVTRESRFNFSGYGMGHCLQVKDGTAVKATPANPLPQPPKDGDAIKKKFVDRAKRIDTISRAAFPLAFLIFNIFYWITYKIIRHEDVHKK
# Test Protocol: Whole-cell patch-clamp of glycine-induced currents, α2 GlyR expressed in CHO cells
# Format: cell-based
# Condition Context: +30 mV; glycine 100 μM; representative; read-out: NFA IC50 (representative IC50 curve)
Metric Name: IC50 (µM)
Output spec: scalar in µM, unitless text.

Enquiry: Given O=C(O)c1cccnc1Nc1cccc(C(F)(F)F)c1 [NFA, Niflumic acid] , state its recorded IC50.
Return: 12
